assayed-system: T1, His-tagged cynomolgus TIGIT (cynomolgus, UniProt A0A7N9I9V4 89-209)
T1 construct: SPR analyte; also called cynomolgus TIGIT protein; not shown: His tag
T1 sequence (A0A7N9I9V4 entry or part of it): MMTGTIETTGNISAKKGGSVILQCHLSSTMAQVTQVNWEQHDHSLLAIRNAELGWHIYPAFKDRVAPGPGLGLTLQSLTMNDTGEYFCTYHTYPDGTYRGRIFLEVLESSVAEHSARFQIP
method: SPR (Biacore T200), antibody captured, His-tagged TIGIT analyte
parameter: koff (s⁻¹)
Record the value in s⁻¹, omitting the unit from your answer.

# annotated cases, reported koff shown
binder	parameter	observed-measurement
TIGIT-19 chimeric antibody (antibody, human IgG1, kappa, V domains shown, also called 19VH + 19VL) VH: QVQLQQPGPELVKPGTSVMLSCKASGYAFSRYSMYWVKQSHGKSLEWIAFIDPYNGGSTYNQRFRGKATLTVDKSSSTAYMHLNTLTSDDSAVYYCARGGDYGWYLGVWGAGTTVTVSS VL: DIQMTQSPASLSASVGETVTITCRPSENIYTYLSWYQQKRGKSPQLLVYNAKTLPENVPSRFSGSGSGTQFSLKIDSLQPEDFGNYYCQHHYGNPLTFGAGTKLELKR	koff	3.2e-05
TIGIT-3 chimeric antibody (antibody, human IgG1, kappa, V domains shown, also called 3VH + 3VL) VH: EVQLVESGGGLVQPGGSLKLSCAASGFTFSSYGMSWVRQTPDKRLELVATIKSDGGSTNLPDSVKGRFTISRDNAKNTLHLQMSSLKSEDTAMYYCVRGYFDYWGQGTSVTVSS VL: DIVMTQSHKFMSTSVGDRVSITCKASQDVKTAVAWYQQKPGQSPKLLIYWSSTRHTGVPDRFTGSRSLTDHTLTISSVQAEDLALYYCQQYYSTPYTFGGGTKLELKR	koff	5.3e-05

[Q] Quick one: koff for Hu1217-2-2 (anti-TIGIT positive control antibody) (antibody, V domains shown) VH: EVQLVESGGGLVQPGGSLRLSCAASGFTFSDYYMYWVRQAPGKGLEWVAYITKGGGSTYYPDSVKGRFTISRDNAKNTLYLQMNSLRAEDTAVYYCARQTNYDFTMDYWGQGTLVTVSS VL: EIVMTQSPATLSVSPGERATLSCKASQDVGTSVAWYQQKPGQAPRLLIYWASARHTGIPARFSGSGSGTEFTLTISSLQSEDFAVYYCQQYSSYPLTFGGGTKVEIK ?
[A] 0.063

Origin of measurements: patent US20260139048A1
